- SYSTEM: Tyrosine-protein kinase TXK (Homo sapiens, UniProt P42681)
- Sequence (P42681 whole entry): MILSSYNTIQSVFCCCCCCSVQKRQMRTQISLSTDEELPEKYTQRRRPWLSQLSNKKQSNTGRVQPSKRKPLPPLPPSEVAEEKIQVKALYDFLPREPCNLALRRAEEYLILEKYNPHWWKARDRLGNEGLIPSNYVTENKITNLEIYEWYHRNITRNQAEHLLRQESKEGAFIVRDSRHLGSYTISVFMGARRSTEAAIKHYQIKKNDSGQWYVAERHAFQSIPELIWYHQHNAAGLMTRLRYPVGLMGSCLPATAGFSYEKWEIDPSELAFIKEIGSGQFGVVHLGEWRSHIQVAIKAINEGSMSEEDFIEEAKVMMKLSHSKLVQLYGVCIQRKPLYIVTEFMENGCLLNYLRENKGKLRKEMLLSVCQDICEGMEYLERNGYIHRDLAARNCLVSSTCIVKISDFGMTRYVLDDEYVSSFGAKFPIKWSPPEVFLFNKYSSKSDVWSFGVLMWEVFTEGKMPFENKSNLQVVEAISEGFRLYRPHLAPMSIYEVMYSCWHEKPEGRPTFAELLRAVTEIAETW
pIC50: −log10 of the molar value.
MEASUREMENT KIND: pIC50

> print(dat)
                                item.smiles  number
1  CC#CC(=O)N1CC[C@@H](n2c(=O)n(-c3ccc(Oc4ccccc4)cc3)c3c(N)ncnc32)C1    6.94

---

- SYSTEM: Tyrosine-protein kinase BTK (Homo sapiens, UniProt Q06187)
- Sequence (Q06187 whole entry): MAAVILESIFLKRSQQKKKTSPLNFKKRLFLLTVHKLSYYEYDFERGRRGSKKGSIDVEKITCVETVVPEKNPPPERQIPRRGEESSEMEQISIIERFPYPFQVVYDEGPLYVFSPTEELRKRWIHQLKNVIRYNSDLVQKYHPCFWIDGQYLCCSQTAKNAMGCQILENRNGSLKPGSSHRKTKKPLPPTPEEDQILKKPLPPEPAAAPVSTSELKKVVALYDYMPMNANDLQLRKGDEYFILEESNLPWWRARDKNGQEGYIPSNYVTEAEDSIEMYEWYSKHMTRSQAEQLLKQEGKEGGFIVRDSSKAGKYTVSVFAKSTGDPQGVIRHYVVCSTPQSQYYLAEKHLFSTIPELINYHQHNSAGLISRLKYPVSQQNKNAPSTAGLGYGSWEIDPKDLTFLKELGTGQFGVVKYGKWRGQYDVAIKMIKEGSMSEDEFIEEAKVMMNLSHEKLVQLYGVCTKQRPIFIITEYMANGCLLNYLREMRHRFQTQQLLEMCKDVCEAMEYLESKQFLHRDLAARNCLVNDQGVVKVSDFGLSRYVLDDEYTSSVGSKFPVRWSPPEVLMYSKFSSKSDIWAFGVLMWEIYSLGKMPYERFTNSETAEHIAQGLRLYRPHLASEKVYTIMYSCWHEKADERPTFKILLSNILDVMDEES
- TEST SUMMARY: Inhibition of BTK (unknown origin)
MEASUREMENT KIND: IC50

> print(dat)
                                item.smiles                                    system  result
1  COc1ccc(F)cc1C(=O)NCc1ccc(-c2nn([C@@H](C)C(F)(F)F)c(N)c2C(N)=O)cc1  Tyrosine-protein kinase BTK (Homo sapiens, UniProt Q06187)  < 1 nM
